Could you please report measured IC50 for the items listed next?
- assayed_target: full-length beta-Catenin (Uniprot ID P35222) (Homo sapiens (Human)) (UniProt P35222)
- Sequence (P35222 whole entry): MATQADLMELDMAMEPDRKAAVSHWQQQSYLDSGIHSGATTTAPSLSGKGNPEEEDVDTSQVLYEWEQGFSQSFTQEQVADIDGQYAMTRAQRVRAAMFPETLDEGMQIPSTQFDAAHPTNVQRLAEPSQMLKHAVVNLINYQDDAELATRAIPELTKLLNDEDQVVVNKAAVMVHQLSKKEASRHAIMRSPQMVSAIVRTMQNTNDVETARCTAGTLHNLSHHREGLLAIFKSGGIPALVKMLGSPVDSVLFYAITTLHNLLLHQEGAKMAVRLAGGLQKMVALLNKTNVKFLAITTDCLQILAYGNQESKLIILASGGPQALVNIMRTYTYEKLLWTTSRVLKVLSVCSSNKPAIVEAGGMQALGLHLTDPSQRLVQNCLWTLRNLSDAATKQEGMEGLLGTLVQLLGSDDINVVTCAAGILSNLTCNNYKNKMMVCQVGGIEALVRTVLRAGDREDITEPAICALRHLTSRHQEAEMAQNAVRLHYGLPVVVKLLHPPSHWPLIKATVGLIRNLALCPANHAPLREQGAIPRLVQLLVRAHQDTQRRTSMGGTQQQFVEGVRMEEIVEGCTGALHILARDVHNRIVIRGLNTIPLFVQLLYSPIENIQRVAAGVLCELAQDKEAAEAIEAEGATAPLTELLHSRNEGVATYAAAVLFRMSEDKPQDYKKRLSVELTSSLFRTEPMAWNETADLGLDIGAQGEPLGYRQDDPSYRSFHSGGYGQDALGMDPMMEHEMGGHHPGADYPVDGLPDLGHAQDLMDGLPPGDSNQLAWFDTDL
- method: fluorescence polarization competition; 10 nM full-length beta-catenin, competitor 10 nM 5FAM-TCF4(10-53)
Starred links: 1 amine or outer side, 2 acyl side, 3 side chain; linkers in the order of their positions; H or OH if unused. Positions of bridges follow the written chain, without caps; N, C: chain ends. Non-standard residues stand in square brackets, D forms with d. Primed or numbered codes have the meaning given here. PyrS2″ = (S)-3-amino-1-((pent-4-en-1-yloxy)carbonyl)pyrrolidine-3-carboxylic acid (stapling residue), C=CCCCOC(=O)N1CC[C@@](N[*:1])(C(=O)[*:2])C1; B5(4) = 2,2-bis(4-pentenyl)glycine = 2-amino-2-(pent-4-en-1-yl)hept-6-enoic acid (stitching residue), C=CCCCC(CCCC=C)(N[*:1])C(=O)[*:2]; PyrS = (S)-1-((allyloxy)carbonyl)-3-aminopyrrolidine-3-carboxylic acid, C=CCOC(=O)N1CC[C@@](N[*:1])(C(=O)[*:2])C1; B6 = 2-amino-2-(hex-5-en-1-yl)oct-7-enoic acid, C=CCCCCC(CCCCC=C)(N[*:1])C(=O)[*:2]; Phe(3-COOH) = N[C@@H](Cc1cccc(C(=O)O)c1)C(=O)O; Phe(2-CF3) = N[C@@H](Cc1ccccc1C(F)(F)F)C(=O)O; Bta = N[C@@H](Cc1csc2ccccc12)C(=O)O; αAllylPro = C=CC[C@@]1(C(=O)O)CCCN1; tBuAla = CC(C)(C)C[C@H](N)C(=O)O; 4ClBztA = not defined here

INSERT INTO assay_data (binder, reading) VALUES
  ('Ac-[αAllylPro]D[tBuAla][B5(4)]D[Phe(3-COOH)]QAFL[PyrS2″][Phe(2-CF3)][4ClBztA]A-NH2 (staple 1-4, 4-11; reading uncertain) [I-2491]', '49 nM');

Read the next record carefully.
Would you kindly share the measured IC50 for Ac-[αAllylPro]D[tBuAla][B6]D[Phe(3-COOH)]QAFL[PyrS][Phe(2-CF3)][Bta]A-NH2 (staple 1-4, 4-11; also: later-eluting staple isomer composition) [I-2507] ? 168 nM

Values compiled from patent US20240116985A1.
